hα2C (pIC50): recorded values
SYSTEM: hα2C receptor (Homo sapiens, UniProt P18825)
Construct: expressed in transfected cells
PROTOCOL NOTES: Radioligand binding experiment for α2C-adrenergic receptor ([3H]-raulwolscine)
CONDITION SET: CHO cell membranes with human α2C receptor, [3H]raulwolscine 1 nM
// no unit, no text: just the number

[
  {
    "MOLECULE": "C/C(=C\\c1ccccc1)CN1CCN(CC2ON=C3c4cc5ccn(C(=O)C6CC6)c5cc4OCC32)CC1 (racemic) [Compound 12]",
    "REPORTED": 8.5
  }
]

According to the records, this molecule c1ccc2cc(CN3CCN(CC4ON=C5c6cc7cc[nH]c7cc6OCC54)CC3)ccc2c1 (racemic) [Compound 4] displays hα2C (pIC50) of 8.4

According to the records, this molecule C/C(=C\c1cccc(F)c1)CN1CCN(CC2ON=C3c4ccncc4OCC32)CC1 (racemic) [Compound 20] displays hα2C (pIC50) of 8.8

According to the records, this molecule COC(=O)n1ccc2cc3c(cc21)OCC1C3=NOC1CN1CCN(C/C(C)=C/c2ccccc2)CC1 (racemic) [Compound 13] displays hα2C (pIC50) of 8.4

According to the records, this molecule CC(=CCN1CCN(CC2ON=C3c4cc5cc[nH]c5cc4OCC32)CC1)c1ccccc1 (racemic) [Compound 6] displays hα2C (pIC50) of 8.6

According to the records, this molecule C/C(=C\c1ccc(F)cc1)CN1CCN(CC2ON=C3c4ccncc4OCC32)CC1.O=C(O)C(=O)O (racemic) [Compound 21] displays hα2C (pIC50) of 7.8

According to the records, this molecule Clc1ccc(CN2CCN(CC3ON=C4c5cc6cc[nH]c6cc5OCC43)CC2)cc1 (racemic) [Compound 5] displays hα2C (pIC50) of 7.4

---

SYSTEM: hα2C receptor (Homo sapiens, UniProt P18825)
Construct: expressed in transfected cells
Sequence (P18825 1-462): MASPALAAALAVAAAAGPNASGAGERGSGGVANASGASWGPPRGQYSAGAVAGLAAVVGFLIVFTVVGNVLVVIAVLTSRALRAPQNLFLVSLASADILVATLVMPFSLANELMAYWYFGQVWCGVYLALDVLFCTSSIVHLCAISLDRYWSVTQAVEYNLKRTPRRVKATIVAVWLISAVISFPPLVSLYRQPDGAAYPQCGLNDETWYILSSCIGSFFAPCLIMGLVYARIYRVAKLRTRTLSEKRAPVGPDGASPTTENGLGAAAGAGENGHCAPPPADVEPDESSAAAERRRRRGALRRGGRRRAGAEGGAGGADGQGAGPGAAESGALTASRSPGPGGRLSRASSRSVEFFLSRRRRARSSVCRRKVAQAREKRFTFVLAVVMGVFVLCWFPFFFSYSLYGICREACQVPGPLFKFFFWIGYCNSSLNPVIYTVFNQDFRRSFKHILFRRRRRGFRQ
PROTOCOL NOTES: Radioligand binding experiment for α2C-adrenergic receptor ([3H]-raulwolscine)
CONDITION SET: CHO cell membranes with human α2C receptor, [3H]raulwolscine 1 nM
hα2C (pIC50): recorded values
// no unit, no text: just the number

According to the records, this molecule C/C(=C\c1cccc(F)c1)CN1CCN(CC2ON=C3c4cc5cc[nH]c5cc4OCC32)CC1 (racemic) displays hα2C (pIC50) of 9.0

According to the records, this molecule COCC(=O)n1ccc2cc3c(cc21)OCC1C3=NOC1CN1CCN(C/C(C)=C/c2ccccc2)CC1 (racemic) displays hα2C (pIC50) of 8.9

According to the records, this molecule C/C(=C\c1ccc(F)cc1)CN1CCN(CC2ON=C3c4cc5cc[nH]c5cc4OCC32)CC1 (racemic) displays hα2C (pIC50) of 8.7

---

Counter-ions that a name gives are not always drawn.
METRIC: melting point

Below are worked cases with known answers.
[
  {
    "COMPOUND": "C/C(=C\\c1ccc(F)cc1)CN1CCN(CC2ON=C3c4sccc4OCC32)CC1 (stereo not drawn) [Compound 27]",
    "melting point": "142.3 to 146 °C"
  },
  {
    "COMPOUND": "C/C(=C\\c1ccccc1)CN1CCN(C[C@@H]2ON=C3c4cc5cc[nH]c5cc4OC[C@H]32)CC1 (relative stereo) [Compound 1]",
    "melting point": "173.2 to 179.1 °C"
  },
  {
    "COMPOUND": "C/C(=C\\c1ccccc1)CN1CCN(CC2ON=C3c4cc5ccn(CCO)c5cc4OCC32)CC1 (single isomer, unassigned) [Compound 17]",
    "melting point": "167.5 to 170.5 °C"
  },
  {
    "COMPOUND": "C/C(=C\\c1ccccc1)CN1CCN(CC2ON=C3c4ccncc4OCC32)CC1 (stereo not drawn) (as salt: oxalate) [Compound 18]",
    "melting point": "216.8 to 220.5 °C"
  },
  {
    "COMPOUND": "C/C(=C\\c1ccc(F)cc1)CN1CCN(CC2ON=C3c4ncccc4OCC32)CC1 (stereo not drawn) [Compound 24]",
    "melting point": "145.6 to 152.3 °C"
  }
]

According to the records, this compound C/C(=C\c1ccccc1)CN1CCN(CC2ON=C3c4cc5ccn(CCO)c5cc4OCC32)CC1 (single isomer, unassigned) [Compound 16] displays melting point of 167.9 to 170.2 °C

---

SYSTEM: hα2A receptor (Homo sapiens, UniProt P08913)
Construct: expressed in transfected cells
Sequence (P08913 whole entry): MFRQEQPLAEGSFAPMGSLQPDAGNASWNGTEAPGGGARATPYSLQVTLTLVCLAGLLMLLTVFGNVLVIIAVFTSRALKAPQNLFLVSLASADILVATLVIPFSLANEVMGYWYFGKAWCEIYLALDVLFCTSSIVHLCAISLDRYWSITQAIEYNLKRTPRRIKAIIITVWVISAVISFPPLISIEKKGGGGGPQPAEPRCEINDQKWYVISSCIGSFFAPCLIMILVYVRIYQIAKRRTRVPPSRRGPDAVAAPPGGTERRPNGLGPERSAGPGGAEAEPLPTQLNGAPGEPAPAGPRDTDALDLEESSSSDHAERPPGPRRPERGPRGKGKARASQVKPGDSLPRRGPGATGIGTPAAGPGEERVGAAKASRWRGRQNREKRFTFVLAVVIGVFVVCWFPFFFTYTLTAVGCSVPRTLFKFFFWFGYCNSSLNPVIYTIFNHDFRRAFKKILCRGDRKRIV
PROTOCOL NOTES: Radioligand binding experiment for α2A-adrenergic receptor ([3H]-raulwolscine)
CONDITION SET: CHO cell membranes with human α2A receptor, [3H]raulwolscine 1 nM
METRIC: hα2A (pIC50)
// no unit, no text: just the number

Below are worked cases with known answers.
[
  {
    "COMPOUND": "COC(=O)n1ccc2cc3c(cc21)OCC1C3=NOC1CN1CCN(C/C(C)=C/c2ccccc2)CC1 (racemic)",
    "REPORTED": 8.4
  },
  {
    "COMPOUND": "COCC(=O)n1ccc2cc3c(cc21)OCC1C3=NOC1CN1CCN(C/C(C)=C/c2ccccc2)CC1 (racemic)",
    "REPORTED": 8.5
  }
]

Switching to the query record.
According to the records, this compound C/C(=C\c1ccccc1)CN1CCN(CC2ON=C3c4cc5ccn(C(=O)C6CC6)c5cc4OCC32)CC1 (racemic) displays hα2A (pIC50) of 8.2

---

SYSTEM: hα2B receptor (Homo sapiens, UniProt P18089)
Construct: expressed in transfected cells
Sequence (P18089 1-450): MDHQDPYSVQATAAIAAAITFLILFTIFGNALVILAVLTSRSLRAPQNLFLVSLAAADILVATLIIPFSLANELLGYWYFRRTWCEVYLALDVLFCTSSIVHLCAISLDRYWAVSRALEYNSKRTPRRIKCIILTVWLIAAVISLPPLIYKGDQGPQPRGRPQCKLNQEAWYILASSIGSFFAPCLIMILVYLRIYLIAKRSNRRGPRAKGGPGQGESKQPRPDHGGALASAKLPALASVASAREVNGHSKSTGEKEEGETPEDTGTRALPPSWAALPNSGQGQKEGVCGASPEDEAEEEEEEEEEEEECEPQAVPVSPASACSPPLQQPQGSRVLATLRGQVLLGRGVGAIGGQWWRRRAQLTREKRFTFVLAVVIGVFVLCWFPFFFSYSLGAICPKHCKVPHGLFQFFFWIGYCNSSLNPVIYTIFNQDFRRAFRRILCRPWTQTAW
PROTOCOL NOTES: Radioligand binding experiment for α2B-adrenergic receptor ([3H]-raulwolscine)
CONDITION SET: hα2B (pIC50), CHO cell membranes with human α2B receptor, [3H]raulwolscine 1 nM
pIC50: recorded values
Remember the convention: pIC50 equals -log10 of concentration in molar.

According to the records, this compound C/C(=C\c1ccccc1)CN1CCN(CC2ON=C3c4cc5ccn(CCO)c5cc4OCC32)CC1 (stereo not drawn) [Compound 8] displays pIC50 of 8.30

According to the records, this compound C/C(=C\c1ccccc1)CN1CCN(CC2ON=C3c4cc5ccn(CCO)c5cc4OCC32)CC1 (single isomer, unassigned) [Compound 17] displays pIC50 of 8.30

According to the records, this compound C/C(=C\c1ccccc1)CN1CCN(CC2ON=C3c4cc5ccn(CCO)c5cc4OCC32)CC1 (single isomer, unassigned) [Compound 16] displays pIC50 of 7.70

---

SYSTEM: h5-HT transporter (Homo sapiens, UniProt P31645)
Construct: Human platelet membranes (Oceanix Biosciences Corporation, Hanover, Md., USA) were thawed; tissue Oceanix Biosciences Corporation, Hanover, Md., USA; host or cells: human platelet membranes
Sequence (P31645 whole entry): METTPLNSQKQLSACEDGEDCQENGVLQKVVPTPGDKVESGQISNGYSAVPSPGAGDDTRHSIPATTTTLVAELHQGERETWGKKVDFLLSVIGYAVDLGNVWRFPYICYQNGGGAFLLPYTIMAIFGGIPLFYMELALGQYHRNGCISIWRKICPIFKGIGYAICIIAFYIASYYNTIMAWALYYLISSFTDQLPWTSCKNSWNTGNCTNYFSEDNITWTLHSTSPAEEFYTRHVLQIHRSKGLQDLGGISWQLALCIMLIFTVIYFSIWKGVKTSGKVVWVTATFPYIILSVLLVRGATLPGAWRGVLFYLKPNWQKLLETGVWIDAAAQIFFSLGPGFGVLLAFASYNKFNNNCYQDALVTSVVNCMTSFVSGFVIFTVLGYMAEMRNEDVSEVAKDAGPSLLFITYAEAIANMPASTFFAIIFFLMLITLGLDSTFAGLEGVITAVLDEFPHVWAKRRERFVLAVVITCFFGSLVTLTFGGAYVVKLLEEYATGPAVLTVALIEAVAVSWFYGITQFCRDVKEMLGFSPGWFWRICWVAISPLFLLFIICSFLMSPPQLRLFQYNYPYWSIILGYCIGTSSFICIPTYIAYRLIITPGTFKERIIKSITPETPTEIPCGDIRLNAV
PROTOCOL NOTES: Radioligand binding experiment for 5-HT transporter ([3H]paroxetine)
CONDITION SET: human platelet membranes, [3H]paroxetine 0.5 nM; read-out: 5-HTT (pIC50) (converted)
Experimental: In general, a low concentration of a radioligand with a high binding affinity for a particular receptor or transporter is incubated with a sample of a tissue preparation enriched in a particular receptor or transporter or with a preparation of cells expressing cloned human receptors in a buffered medium. […] When equilibrium of binding is reached, the receptor bound radioactivity is separated from the non-bound radioactivity, and the receptor- or transporter-bound activity is counted. […]
Where a name gives a salt, the structure may show the parent alone.
METRIC: IC50 (nM)
A number alone suffices; assume nM.

Noted IC50 for C/C(=C\c1ccc(F)cc1)CN1CCN(CC2ON=C3c4sccc4OCC32)CC1 (stereo not shown) , tested on h5-HT transporter (Homo sapiens, UniProt P31645): 79.4

Noted IC50 for C/C(=C\c1ccc(F)cc1)CN1CCN(CC2ON=C3c4ncccc4OCC32)CC1 (stereo not shown) , tested on h5-HT transporter (Homo sapiens, UniProt P31645): 200

Noted IC50 for C/C(=C\c1ccccc1)CN1CCN(CC2ON=C3c4cccnc4OCC32)CC1 (stereo not shown) [Compound 22, oxalate salt] , tested on h5-HT transporter (Homo sapiens, UniProt P31645): 6310

Noted IC50 for c1ccc2cc(CN3CCN(CC4ON=C5c6ccncc6OCC54)CC3)ccc2c1 (stereo not shown) , tested on h5-HT transporter (Homo sapiens, UniProt P31645): 100

Ref: patent US7501418B2
